Hello, the source for this data is paper PMC12195660, in case you need it.

# method_summary: In vivo pharmacokinetic study after intragastric administration in rats
# applied_conditions: both sexes, Wistar, rat, plasma, po, 25 mg·kg^−1 of ABZ, n = 6
# Experimental: Eighteen Wistar rats were selected and divided into three groups, with half of them being male and the other half being female. Each group was given a dose of 25 mg·kg^−1 of ABZ by intragastric administration. […] For sample preparation, plasma was thawed, and 50 μL of plasma was mixed with 150 μL of methanol. […] The drug content was quantified using UHPLC-MS/MS (UltiMate 3000 and Q-Exactive Orbitrap MS, Thermo Scientific, USA). Pharmacokinetic parameters were calculated using DAS 2.0 software. […]
reported_metric: Tmax (h)

{"columns": ["chemical_structure", "reported_metric", "measured_number"],
 "data": [
  ["CCCSc1ccc2nc(NC(=O)OC)[nH]c2c1", "Tmax", 2]
]}

---

# method_summary: In vivo pharmacokinetic study after intragastric administration in rats
# applied_conditions: both sexes, Wistar, rat, in vivo, po, 25 mg·kg^−1 of ABZ, n = 6
reported_metric: half-life (h)

{"columns": ["chemical_structure", "quantity_unit", "measured_number"],
 "data": [
  ["CCCSc1ccc2nc(NC(=O)OC)[nH]c2c1", "h", 2]
]}

---

# method_summary: In vivo pharmacokinetic study after intragastric administration in rats
# applied_conditions: both sexes, Wistar, rat, plasma, po, 25 mg·kg^−1 of ABZ, n = 6

{"columns": ["chemical_structure", "AUC(0-t) (ng·h/mL)"],
 "data": [
  ["CCCSc1ccc2nc(NC(=O)OC)[nH]c2c1", 216]
]}
